Origin of values: ChEMBL document CHEMBL5303710

Target: Replicase polyprotein 1ab (Severe acute respiratory syndrome coronavirus 2)
Test: Inhibition of SARS-CoV-2 3CL-Pro proteolytic cleavage of a dual-labeled substrate by FRET at 1mM DTT.
Type: functional
Parameters: assay stage
observable: IC50 relative

What value of IC50 relative has been recorded for this entry: Cc1cc(C)cc(N2C(=O)CC(Sc3nc[nH]n3)C2=O)c1 (configuration not stated)
> 20 µM

What value of IC50 relative has been recorded for this entry: Cc1ccc(-n2sc(=O)n(Cc3ccc(F)cc3)c2=O)cc1
0.148 µM

What value of IC50 relative has been recorded for this entry: O=C(/C=C/c1ccc2ccccc2n1)c1ccncc1
0.191 µM

What value of IC50 relative has been recorded for this entry: Sc1nnc(Nc2ccccc2)s1
> 20 µM

What value of IC50 relative has been recorded for this entry: O=c1c2ccccc2sn1-c1ccccc1
< 0.02 µM

What value of IC50 relative has been recorded for this entry: CC1=CC(=O)c2ccccc2C1=O
> 20 µM

What value of IC50 relative has been recorded for this entry: Cc1c(OCC(F)(F)F)ccnc1C[S+]([O-])c1nc2ccccc2[nH]1 (configuration not stated)
> 20 µM
